- experimental.system: T1, human MSLN protein endogenously expressed on OVCAR3 tumor cells (human, UniProt Q13421 296-598)
- T1 construct: whole, on cells; Endogenous target on OVCAR3 cells; kept apart from the recombinant full-length construct; also called mesothelin
- T1 sequence (Q13421 other isoform, or with tags, fused parts or gaps): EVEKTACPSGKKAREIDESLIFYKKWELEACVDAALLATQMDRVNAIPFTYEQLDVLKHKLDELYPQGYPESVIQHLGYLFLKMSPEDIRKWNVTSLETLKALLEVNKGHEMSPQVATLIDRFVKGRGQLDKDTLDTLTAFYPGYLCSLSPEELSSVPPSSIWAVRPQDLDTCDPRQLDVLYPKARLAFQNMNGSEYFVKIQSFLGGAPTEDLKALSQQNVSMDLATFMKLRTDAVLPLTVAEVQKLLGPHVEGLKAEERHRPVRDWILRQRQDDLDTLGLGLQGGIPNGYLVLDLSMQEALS
- experiment: FACS on OVCAR3 cells;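 note: flow cytometry binding of test antibodies to cells, 2 h incubation on ice, readout as cell mean fluorescence intensity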
Entries and their measured pEC50 follow.
Keep in mind that pEC50 stands for -log10 of concentration in molar terms.

The examples below pair each entry with its known result.
binder: S009-F7.25.19 (antibody, human IgG1, kappa, V domains shown, human-murine chimeric antibody, human IgG1/kappa constant regions) VH: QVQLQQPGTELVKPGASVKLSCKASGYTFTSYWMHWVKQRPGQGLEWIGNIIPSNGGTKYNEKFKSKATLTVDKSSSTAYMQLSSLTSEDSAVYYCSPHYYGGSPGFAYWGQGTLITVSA VL: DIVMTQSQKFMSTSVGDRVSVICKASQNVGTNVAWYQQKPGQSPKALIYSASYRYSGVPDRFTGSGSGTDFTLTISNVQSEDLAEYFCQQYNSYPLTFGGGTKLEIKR
endpoint: pEC50
meas.value: 9.74
--
binder: S009-F7.23.19 (antibody, human IgG1, kappa, V domains shown, human-murine chimeric antibody, human IgG1/kappa constant regions) VH: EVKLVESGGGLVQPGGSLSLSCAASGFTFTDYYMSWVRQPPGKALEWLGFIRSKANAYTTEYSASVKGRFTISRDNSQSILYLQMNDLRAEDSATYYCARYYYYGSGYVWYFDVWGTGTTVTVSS VL: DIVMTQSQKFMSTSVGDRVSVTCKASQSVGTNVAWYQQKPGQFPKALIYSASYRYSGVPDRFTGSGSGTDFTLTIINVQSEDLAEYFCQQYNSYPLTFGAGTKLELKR
endpoint: pEC50
meas.value: 9.82

Prompt: For the binder shown here, S009-F7.18.10 (antibody, human IgG1, kappa, V domains shown, human-murine chimeric antibody, human IgG1/kappa constant regions) VH: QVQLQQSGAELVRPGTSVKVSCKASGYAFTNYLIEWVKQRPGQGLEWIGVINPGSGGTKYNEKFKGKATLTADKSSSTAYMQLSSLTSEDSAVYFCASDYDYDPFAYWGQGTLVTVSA VL: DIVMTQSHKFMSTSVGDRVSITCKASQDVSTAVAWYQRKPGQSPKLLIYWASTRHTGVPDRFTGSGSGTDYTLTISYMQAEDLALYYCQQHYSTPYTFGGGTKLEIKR , give the reported pEC50.
Response: 8.48
